Values compiled from patent EP3860599B1.

Experiment description: Plasma concentrations up to 7 hours after oral dosing of human volunteers, Example 1B
Type: in vivo
Run conditions: po, 7.5 mg, Example 1B subject 2 (76 kg), 7.5 mg oral, 2 h
Procedure: Volunteers 1 and 2 were the same as volunteers 1 and 2 in Example 1A described above. […] In addition, in all volunteers PET scans were initiated at 6 hours after drug administration and these were stopped at 7 hours after drug administration. […]
Recorded metric: concentration at 2 h (ng/mL)
One number for each entry, in ng/mL.

Given the compound COc1cc2c(cc1OC)[C@H]1C[C@@H](O)[C@H](CC(C)C)CN1CC2 [(+)-α-dihydrotetrabenazine] , write its reported concentration at 2 h. 11.7
